Sourced from paper PMC7140498

measurementDescription: Metabolic stability assay (substrate depletion) in human liver cytosol fractions
reportedConditions: external validation, sheet Human, left compound
measurementKind: t1/2 [min] (Left) (min)

• N#Cc1cccc(CN2CCOC[C@H](O)C2)c1 [N#Cc1cccc(CN2CCOC[C@H](O)C2)c1] = 51.1
• Fc1cccc(-c2cnc(Nc3cncnc3)c3c2CCO3)c1 [Fc1cccc(-c2cnc(Nc3cncnc3)c3c2CCO3)c1] = 9.6
• Fc1cccc(Nc2ncc(-c3cccnc3)c3c2OCC3)c1 [Fc1cccc(Nc2ncc(-c3cccnc3)c3c2OCC3)c1] = 76.6
• O=C(Nc1cnc(-c2ccccc2)nc1)c1cccc(F)c1 [O=C(Nc1cnc(-c2ccccc2)nc1)c1cccc(F)c1] = 52
• COC1CCC12CCN(C(=O)c1ccc(C#N)cc1)CC2 (centres unmarked) [COC1CCC12CCN(C(=O)c1ccc(C#N)cc1)CC2] = 79.2
• COc1cncc(Nc2ncc(-c3cccc(F)c3)c3c2OCC3)c1 [COc1cncc(Nc2ncc(-c3cccc(F)c3)c3c2OCC3)c1] = 80.3
• Cc1cc(F)ccc1OC1CN(Cc2ccc(C#N)cc2)C1 [Cc1cc(F)ccc1OC1CN(Cc2ccc(C#N)cc2)C1] = 35.4
• N#Cc1ccc(CN2C[C@@H](CO)[C@H](c3ccncc3)C2)cc1 = 107.1
• Cn1cnc2ccc(Nc3cccc(F)c3)nc2c1=O [Cn1cnc2ccc(Nc3cccc(F)c3)nc2c1=O] = 115.2
• O=C(NCCc1c[nH]cn1)c1ccc(-c2ncc3cnc(-c4cccc(F)c4)cn23)cc1 = 14.9
• Fc1cccc(-c2noc(-c3nc(-c4ccncc4)no3)n2)c1 [Fc1cccc(-c2noc(-c3nc(-c4ccncc4)no3)n2)c1] = 26.4
• Fc1cccc(-c2c[nH]c([C@@H]3COCCN3Cc3c[nH]cn3)n2)c1 = 59.3
• Cc1cc(OC2CN(Cc3ccc(C#N)cc3)C2)ccc1F [Cc1cc(OC2CN(Cc3ccc(C#N)cc3)C2)ccc1F] = 43.8
• O=c1c2nc(Nc3cccc(F)c3)ccc2ncn1-c1cccnc1 [O=c1c2nc(Nc3cccc(F)c3)ccc2ncn1-c1cccnc1] = 96.4

* * *

measurementDescription: Metabolic stability assay (substrate depletion) in human liver cytosol fractions
reportedConditions: both, human, cytosol, pH 7.4, t1/2 category (Human cytosol), control compounds, 17 plates
measurementKind: half-life at 1 μM

- Cc1cc(=O)n(-c2ccccc2)n1C [Antipyrine, reference compound]: > 30 min

* * *

measurementDescription: Metabolic stability assay (substrate depletion) in human liver cytosol fractions
reportedConditions: both, human, liver cytosol fractions, pH 7.4, t1/2 [min] (Right), external validation, sheet Human, right compound
measurementKind: half-life at 1 μM (h)

* COc1cccc(-c2c(C(=O)Nc3ccc(C)cc3)nc3sccn23)c1 | 1.55
* COc1cccc(-c2cn3c(n2)N(C(=O)c2ccco2)CCC3)c1 | 0.993
* COc1ccc(CN2CCC3(COc4ccccc4C(=O)N3)C2)cc1 (centres unmarked) | 0.578

* * *

measurementDescription: Metabolic stability assay (substrate depletion) in mouse liver cytosol fractions
reportedConditions: male, CD-1, mouse, cytosol, pH 7.4, t1/2 (mean ± SD) (Mouse cytosol), control compounds, 17 plates, 1 μM, 2 mg/mL cytosol, pH 7.4, 37 °C
measurementKind: half-life at 1 μM

• Cc1cc(=O)n(-c2ccccc2)n1C [Antipyrine, reference compound] = > 2 h
